test-name: qHTS for Inhibitors of human tyrosyl-DNA phosphodiesterase 1 (TDP1): qHTS in cells in absence of CPT; further: nearly all actives have a fitted effect of over 55% in size
measurement-conditions: DT40 Tdp1-/- hTDP1 cells, no CPT, ATP luminescence, 48 h
Method: Human tyrosyl-DNA phosphodiesterase 1 (TDP1) is a novel repair gene, and we propose to use it as a new target for anticancer drug development. […] For the primary screen, Tdp1-/-;hTDP1 cells will be exposed to small molecules in the presence or absence of CPT, and their growth kinetics will be evaluated after 48 hours by measuring ATP activity. […] The hit compounds will then be evaluated in the presence or absence of CPT using Tdp1-/- cells. […]
Hit rate of the full screen: of about 420,000 compounds, about 64,000 (15%) were called active. Roughly 27% stayed inconclusive and do not appear here. The call rests on the fitted dose curve; in most records, active means well fitted inhibition curve with a large enough effect; inconclusive means small, poorly fitted or top-dose-only effect; inactive means flat fitted curve, though single readings scatter. Only a sample is shown.
Your reply should match one of these outcome classes. label 1 = active, label 0 = inactive

{"compound": "CCOc1ccc(Br)cc1S(=O)(=O)Nc1ccc(S(=O)(=O)Nc2cc(C)on2)cc1", "class-assignment": "label 0"}

Incoming: Hi team, can someone confirm the assay call for "Cc1cccc(C)c1NC(=O)CSc1nnc(-c2ccccc2)n1Cc1ccc2c(c1)OCO2" ?
Outgoing: label 0

Incoming: # lookup: test call for "Cc1cn(C)c(=O)n(C)c1=O"
Outgoing: label 0

Incoming: // return assay outcome for "Cc1cc(C)cc(N(CC(=O)NC2CCCC2)C(=O)CCC(=O)Nc2nccs2)c1"
Outgoing: label 0

Incoming: Dear all, I need the recorded test outcome for "Cc1ccc(-c2c3c(=O)n(C)c(=O)n(C)c3cn2-n2cnnc2)cc1" , thank you.
Outgoing: label 1

Incoming: Outcome logged for COc1ccccc1OC(C)C(=O)Nc1ccc(S(=O)(=O)Nc2nccs2)cc1 (stereo unspecified) in this assay:
Outgoing: label 0

----------
test-name: qHTS for Inhibitors of human tyrosyl-DNA phosphodiesterase 1 (TDP1): qHTS in cells in absence of CPT; further: nearly all actives have a fitted effect of over 55% in size
measurement-conditions: DT40 Tdp1-/- hTDP1 cells, no CPT, ATP luminescence, 48 h
Among all 420,000 compounds or so, about 64,000 (15%) were called active. Another 27% or so got no clear call; they are omitted. The call rests on the fitted dose curve; in most records, active means well fitted inhibition curve with a large enough effect; inconclusive means small, poorly fitted or top-dose-only effect; inactive means flat fitted curve, though single readings scatter. Only a sample is shown.
Please reply with one of these outcomes: active, inactive

{"compound": "COc1cc2sc(C)nc2cc1C", "class-assignment": "inactive"}

Incoming: Each compound tested received a call. Report the one for "O=S(=O)(c1ccccc1)c1nc(-c2ccccc2F)oc1NCc1cccnc1" .
Outgoing: inactive

Incoming: I would be grateful if you could indicate the recorded call for "Cc1ccc(-n2c(SCC(=O)Nc3cccc(F)c3)nc3c(oc4ccccc43)c2=O)cc1C" .
Outgoing: inactive

----------
test-name: qHTS for Inhibitors of human tyrosyl-DNA phosphodiesterase 1 (TDP1): qHTS in cells in absence of CPT; further: nearly all actives have a fitted effect of over 55% in size; further: potency means the concentration at half of the fitted maximal effect
measurement-conditions: DT40 Tdp1-/- hTDP1 cells, no CPT, ATP luminescence, 48 h
The campaign covered roughly 420,000 compounds. About 64,000 (15%) were called active. Roughly 27% stayed inconclusive and do not appear here. A selection follows.
endpoint: Potency

Consider the following illustrative entries.
{"compound": "COC(=O)c1ccc2c(=O)n(CCN3CCOCC3)c(SCC(=O)Nc3cccc(OC)c3)nc2c1", "Potency": "inactive"}
{"compound": "CCc1ccccc1N1C(=O)C2C3CC(=O)C(c4ccccc43)C2C1=O (stereo not given)", "Potency": "inactive"}
{"compound": "Cc1cccc(CSc2nc3ccncc3n2Cc2ccc(C(=O)O)cc2)c1", "Potency": "inactive"}
{"compound": "COc1cccc(Cn2c(SCc3ccc(C(=O)N4CCC(C)CC4)cc3)nc3ccncc32)c1", "Potency": "20.6 µM (active)"}

Field: next compound
Incoming: Using the record for "COc1cc(C(=O)N2CCC(c3ccncc3)CC2)cc(OC)c1OC" , report its Potency.
Outgoing: inactive

Reference source for all entries: PubChem BioAssay AID686978
